assayMethodText: Effect of verapamil, PEG 400 and EDTA on trans-enterocyte transport of CA
Assay type: in vitro ADME, human
measurementContext: human, Caco-2, with verapamil 100 μmol/L, CA 50 μM, 0.5 h, + 100 μmoL/L verapamil; read-out: Papp AP to BL
parameterMeasured: Papp A→B at 0.5 h, 50 μM (×10⁻⁶ cm/s)

[
  {
    "structureString": "CC(C)c1cc2c(c(O)c1O)[C@@]1(C(=O)O)CCCC(C)(C)[C@@H]1CC2",
    "unit": "×10⁻⁶ cm/s",
    "val": 1.98
  }
]

* * *

assayMethodText: Trans-enterocyte transport of CA in Caco-2 cell monolayer
Format: in vitro ADME, human
measurementContext: human, Caco-2, CA 50 μM, 2.5 h

[
  {
    "structureString": "CC(C)c1cc2c(c(O)c1O)[C@@]1(C(=O)O)CCCC(C)(C)[C@@H]1CC2",
    "efflux ratio at 2.5 h, 50 μM": 0.98
  }
]

* * *

assayMethodText: Effect of verapamil, PEG 400 and EDTA on trans-enterocyte transport of CA
Type: in vitro ADME, human
measurementContext: human, Caco-2, with verapamil 100 μmol/L, CA 100 μM, Average of 0.5-3.0 h, + 100 μmoL/L verapamil; read-out: Papp AP to BL
parameterMeasured: Papp A→B at 100 μM

[
  {
    "compound": "CC(C)c1cc2c(c(O)c1O)[C@@]1(C(=O)O)CCCC(C)(C)[C@@H]1CC2 [CA, Carnosic acid]",
    "parameterMeasured": "Papp A→B at 100 μM",
    "val": "1.53 ×10⁻⁶ cm/s"
  }
]

* * *

assayMethodText: Effect of verapamil, PEG 400 and EDTA on trans-enterocyte transport of CA
Type: in vitro ADME, human
measurementContext: human, Caco-2, CA 100 μM, 2.0 h, + 5% PEG 400; read-out: Papp AP to BL
Procedure: CA was dissolved in HBSS solution at 50, 75, and 100 μM. The HBSS solution containing CA combined with 0.5% Tween 80, 5 mmol/L EDTA or 5% PEG 400 was prepared. The cumulative migration (Qr), apparent permeability coefficient (Papp), and the Papp value of bi-direction transport of CA were calculated according to formulas. […]

[
  {
    "structureString": "CC(C)c1cc2c(c(O)c1O)[C@@]1(C(=O)O)CCCC(C)(C)[C@@H]1CC2",
    "Papp A→B at 2 h, 100 μM": "2.25 ×10⁻⁶ cm/s"
  }
]

* * *

assayMethodText: Effect of verapamil, PEG 400 and EDTA on trans-enterocyte transport of CA
Format: in vitro ADME, human
measurementContext: human, Caco-2, with verapamil 100 μmol/L, CA 100 μM, 1.5 h, + 100 μmoL/L verapamil; read-out: Papp AP to BL

[
  {
    "structureString": "CC(C)c1cc2c(c(O)c1O)[C@@]1(C(=O)O)CCCC(C)(C)[C@@H]1CC2",
    "Papp A→B at 1.5 h, 100 μM, ×10⁻⁶ cm/s": 2.99
  }
]

* * *

assayMethodText: Effect of verapamil, PEG 400 and EDTA on trans-enterocyte transport of CA
Format: in vitro ADME, human
measurementContext: human, Caco-2, CA 50 μM, 2.5 h, + 5% PEG 400; read-out: Papp AP to BL
Method: CA was dissolved in HBSS solution at 50, 75, and 100 μM. The HBSS solution containing CA combined with 0.5% Tween 80, 5 mmol/L EDTA or 5% PEG 400 was prepared. The cumulative migration (Qr), apparent permeability coefficient (Papp), and the Papp value of bi-direction transport of CA were calculated according to formulas. […]
parameterMeasured: Papp A→B at 2.5 h, 50 μM (×10⁻⁶ cm/s)

[
  {
    "structureString": "CC(C)c1cc2c(c(O)c1O)[C@@]1(C(=O)O)CCCC(C)(C)[C@@H]1CC2",
    "unit": "×10⁻⁶ cm/s",
    "val": 1.89
  }
]

* * *

assayMethodText: Effect of verapamil, PEG 400 and EDTA on trans-enterocyte transport of CA
Format: in vitro ADME, human
measurementContext: human, Caco-2, with verapamil 100 μmol/L, CA 50 μM, 2.5 h, + 100 μmoL/L verapamil; read-out: Papp AP to BL

[
  {
    "structureString": "CC(C)c1cc2c(c(O)c1O)[C@@]1(C(=O)O)CCCC(C)(C)[C@@H]1CC2",
    "Papp A→B at 2.5 h, 50 μM (×10⁻⁶ cm/s)": 0.95
  }
]

* * *

assayMethodText: Trans-enterocyte transport of CA in Caco-2 cell monolayer
Format: in vitro ADME, human
measurementContext: human, Caco-2, CA 75 μM, 3.0 h
parameterMeasured: efflux ratio at 3 h, 75 μM

[
  {
    "molecule": "CC(C)c1cc2c(c(O)c1O)[C@@]1(C(=O)O)CCCC(C)(C)[C@@H]1CC2 [CA, Carnosic acid]",
    "parameterMeasured": "efflux ratio at 3 h, 75 μM",
    "val": 0.61
  }
]

* * *

assayMethodText: Trans-enterocyte transport of CA in Caco-2 cell monolayer
Type: in vitro ADME, human
measurementContext: human, Caco-2, CA 100 μM, 1.0 h
parameterMeasured: efflux ratio at 1 h, 100 μM

[
  {
    "structureString": "CC(C)c1cc2c(c(O)c1O)[C@@]1(C(=O)O)CCCC(C)(C)[C@@H]1CC2",
    "val": 0.42
  }
]

* * *

assayMethodText: Effect of verapamil, PEG 400 and EDTA on trans-enterocyte transport of CA
Type: in vitro ADME, human
measurementContext: human, Caco-2, CA 75 μM, 1.0 h, + 5 mmoL/L EDTA; read-out: Papp AP to BL
parameterMeasured: Papp A→B at 1 h, 75 μM (×10⁻⁶ cm/s)

[
  {
    "compound": "CC(C)c1cc2c(c(O)c1O)[C@@]1(C(=O)O)CCCC(C)(C)[C@@H]1CC2 [CA, Carnosic acid]",
    "parameterMeasured": "Papp A→B at 1 h, 75 μM",
    "unit": "×10⁻⁶ cm/s",
    "val": 1.9
  }
]

* * *

assayMethodText: Effect of verapamil, PEG 400 and EDTA on trans-enterocyte transport of CA
Format: in vitro ADME, human
measurementContext: human, Caco-2, CA 75 μM, 1.5 h, + 5 mmoL/L EDTA; read-out: Papp AP to BL
parameterMeasured: Papp A→B at 1.5 h, 75 μM (×10⁻⁶ cm/s)

[
  {
    "structureString": "CC(C)c1cc2c(c(O)c1O)[C@@]1(C(=O)O)CCCC(C)(C)[C@@H]1CC2",
    "parameterMeasured": "Papp A→B at 1.5 h, 75 μM",
    "val": 1.94
  }
]

* * *

assayMethodText: Effect of verapamil, PEG 400 and EDTA on trans-enterocyte transport of CA
Assay type: in vitro ADME, human
measurementContext: human, Caco-2, CA 75 μM, Average of 0.5-3.0 h, + 5% PEG 400; read-out: Papp AP to BL

[
  {
    "structureString": "CC(C)c1cc2c(c(O)c1O)[C@@]1(C(=O)O)CCCC(C)(C)[C@@H]1CC2",
    "Papp A→B at 75 μM": "1.45 ×10⁻⁶ cm/s"
  }
]

* * *

assayMethodText: Effect of verapamil, PEG 400 and EDTA on trans-enterocyte transport of CA
Type: in vitro ADME, human
measurementContext: human, Caco-2, CA 50 μM, Average of 0.5-3.0 h, + 5% PEG 400; read-out: Papp AP to BL
parameterMeasured: Papp A→B at 50 μM

[
  {
    "structureString": "CC(C)c1cc2c(c(O)c1O)[C@@]1(C(=O)O)CCCC(C)(C)[C@@H]1CC2",
    "parameterMeasured": "Papp A→B at 50 μM",
    "val": "2.69 ×10⁻⁶ cm/s"
  }
]

* * *

assayMethodText: Effect of verapamil, PEG 400 and EDTA on trans-enterocyte transport of CA
Assay type: in vitro ADME, human
measurementContext: human, Caco-2, CA 75 μM, 0.5 h, + 5% PEG 400; read-out: Papp AP to BL
Protocol: CA was dissolved in HBSS solution at 50, 75, and 100 μM. The HBSS solution containing CA combined with 0.5% Tween 80, 5 mmol/L EDTA or 5% PEG 400 was prepared. The cumulative migration (Qr), apparent permeability coefficient (Papp), and the Papp value of bi-direction transport of CA were calculated according to formulas. […]

[
  {
    "compound": "CC(C)c1cc2c(c(O)c1O)[C@@]1(C(=O)O)CCCC(C)(C)[C@@H]1CC2 [CA, Carnosic acid]",
    "unit": "×10⁻⁶ cm/s",
    "Papp A→B at 0.5 h, 75 μM": 3.9
  }
]

* * *

assayMethodText: Trans-enterocyte transport of CA in Caco-2 cell monolayer
Type: in vitro ADME, human
measurementContext: human, Caco-2, CA 50 μM, Average of 0.5-3.0 h, CA alone; read-out: Papp AP to BL

[
  {
    "structureString": "CC(C)c1cc2c(c(O)c1O)[C@@]1(C(=O)O)CCCC(C)(C)[C@@H]1CC2",
    "Papp A→B at 50 μM": "5.4 nm/s"
  }
]
